- MEASUREMENT_TARGET: human triosephosphate isomerase (TPI) (Homo sapiens)
- Sequence (P60174 2-249): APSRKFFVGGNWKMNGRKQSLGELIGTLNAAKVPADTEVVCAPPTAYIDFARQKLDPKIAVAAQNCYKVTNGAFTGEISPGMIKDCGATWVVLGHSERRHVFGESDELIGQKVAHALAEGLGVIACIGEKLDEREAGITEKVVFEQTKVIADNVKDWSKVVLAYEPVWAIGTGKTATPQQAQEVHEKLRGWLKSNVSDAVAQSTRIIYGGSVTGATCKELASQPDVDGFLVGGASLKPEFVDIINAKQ

COMPOUND	Ki [µM]
C=C(OP(=O)(O)O)C(=O)O [PEP, phosphoenolpyruvate]	230
